assay: Stability in liver microsomes, rat
Lab note - cut at 0.1 µM for Trep Concentration 60 min: class 1 if strictly below, class 0 if not.

Prompt line: Regarding CCCCCC(CCC1C(O)CC2Cc3c(cccc3OCC(=O)O)CC21)OC(=O)c1ccc(C)cc1 (stereo not drawn) , kindly confirm whether its Trep Concentration 60 min is beneath 0.1 µM.
Response line: class 0

Prompt line: Try this molecule next: CCCCCC(CCC1C(O)CC2Cc3c(cccc3OCC(=O)O)CC21)OC(=O)C1CCCN1 (stereo not drawn)
Response line: class 0

Prompt line: Try this molecule next: CCCCCC(CCC1C(O)CC2Cc3c(cccc3OCC(=O)O)CC21)OC(=O)OCC (stereo not drawn)
Response line: class 0

Prompt line: Try this molecule next: CCCCCC(CCC1C(O)CC2Cc3c(cccc3OCC(=O)O)CC21)OC(=O)C(C)N (stereo not drawn)
Response line: class 0

Prompt line: Try this molecule next: CCCCCC(CCC1C(O)CC2Cc3c(cccc3OCC(=O)O)CC21)OC(=O)CCN (stereo not drawn)
Response line: class 1

Prompt line: Try this molecule next: CCCCCC(CCC1C(O)CC2Cc3c(cccc3OCC(=O)O)CC21)OC (stereo not drawn)
Response line: class 1

Prompt line: Try this molecule next: CCCCCC(CCC1C(O)CC2Cc3c(cccc3OCC(=O)O)CC21)OC(=O)c1ccc(O)cc1 (stereo not drawn)
Response line: class 1

Prompt line: Try this molecule next: CCCCCC(CCC1C(O)CC2Cc3c(cccc3OCC(=O)O)CC21)OC(=O)CO (stereo not drawn)
Response line: class 0

Prompt line: Try this molecule next: CCCCCC(O)CCC1C(OC)CC2Cc3c(cccc3OCC(=O)O)CC21 (stereo not drawn)
Response line: class 1

----------
assay: Stability in liver microsomes, dog
Endpoint Label: Trep Concentration 0 min

Prompt line: Fill in the blank: the reported Trep Concentration 0 min of CCCCCC(CCC1C(O)CC2Cc3c(cccc3OCC(=O)O)CC21)OC(=O)CN (centres unmarked) is ____.
Response line: 0.0977 µM

Prompt line: Try this compound next: CCCCCC(CCC1C(O)CC2Cc3c(cccc3OCC(=O)O)CC21)OC(=O)N1CCCCC1 (centres unmarked)
Response line: 0 µM

Prompt line: Try this compound next: CCCCCC(CCC1C(OC(=O)CC)CC2Cc3c(cccc3OCC(=O)O)CC21)OC(=O)CC (centres unmarked) [Prodrug LXX, treprostinil dipropionate]
Response line: 1.24 µM

Prompt line: Try this compound next: CCCCCC(CCC1C(O)CC2Cc3c(cccc3OCC(=O)O)CC21)OC(=O)c1ccccc1O (centres unmarked)
Response line: 0.00725 µM

Prompt line: Try this compound next: CCCCCC(CCC1C(O)CC2Cc3c(cccc3OCC(=O)O)CC21)OC(=O)OC(C)C (centres unmarked)
Response line: 0.45 µM

Prompt line: Try this compound next: CCCCCC1CCC2C(CC3Cc4c(cccc4OCC(=O)O)CC32)OP(=O)(Oc2ccccc2)O1 (mixture of isomers)
Response line: 0 µM

Prompt line: Try this compound next: CCCCCC(CCC1C(O)CC2Cc3c(cccc3OCC(=O)O)CC21)OC(=O)c1ccc(O)c(O)c1 (centres unmarked)
Response line: 0 µM

Prompt line: Try this compound next: CCCCCC(CCC1C(O)CC2Cc3c(cccc3OCC(=O)O)CC21)OC(=O)CCC(=O)N1CCOCC1 (centres unmarked)
Response line: 0.0247 µM

Reference source: patent US12491170B2
